Experiment: Solubility measurement by UV-Vis absorbance at 413 nm
Assay type: physicochemical
Settings: 1 M KOH solution, pH 14, aqueous buffer, thermodynamic from solid; room temperature, in 1 M KOH
parameter-measured: solubility

Documented solubility of O=C1c2ccc(O)cc2C(=O)c2ccc(O)cc21 [2,6-DHAQ, 2,6-dihydroxy-9,10-anthraquinone] : > 600 mM
